tgt: Protein kinase 7 (PK7), Plasmodium falciparum 3D7 (PF3D7_0213400) (UniProt Q7YTF7)
measurementNotes: inhibition of Plasmodium PK7 catalytic activity – biochemical, TCAMS antimalarial set, Kinase-Glo luminescence (AID 1159587)
conditionContext: recombinant PfPK7, Kinase-Glo ATP depletion luminescence
Calls of active or inactive are those of the source. How the calls were made is not given here.
observationType: outcome

{"columns": ["compound", "outcome"],
 "data": [
  ["COc1ccc2c(c1)CC(C)(C)NC2CCCCCCCCC1NC(C)(C)Cc2cc(OC)ccc21 (stereo not given)", "inactive"],
  ["O=C(NC1CCC(N2CCN(c3cccc4[nH]ccc34)CC2)CC1)c1cc2cccnc2[nH]1 (stereo not given)", "inactive"],
  ["CC(O)C1CCCCN1C(=O)c1cccc(-c2ccc(-c3nc4ccccc4[nH]3)s2)c1 (stereo not given)", "inactive"],
  ["CN(Cc1cccc(O)c1)C1CCN(c2cc(NC(=O)c3ccc(F)cc3)ccn2)CC1", "inactive"],
  ["Cc1cc2[nH]c(-c3ccc(C(=O)NCCCN4CCN(c5cccc(Cl)c5)CC4)cc3)nc2cc1Cl", "inactive"],
  ["COc1ccc(C(=O)O)cc1OCc1ccccc1", "inactive"],
  ["O=C(CSc1nccn1C1CCCC1)Nc1cc(C(F)(F)F)ccc1Cl", "inactive"],
  ["NC(=O)c1cccc(Nc2nccc(Nc3ccc(Oc4c(Cl)cccc4Cl)c(Cl)c3)n2)c1", "inactive"]
]}

Entry Cc1cc(NC(=O)c2cccs2)ccc1OC1CCN(Cc2ccc(F)cc2)C1 (stereo not given) , outcome reported as inactive

So for N#Cc1ccc(-c2ccc(C(=O)NCCCCN3CCC(c4ccncc4)CC3)cc2)cc1 , the logged outcome turned out to be inactive

Lab note: O=C1CCCN1CCCNCc1cccc(-c2ccc(-c3nc4ccc(C(F)(F)F)cc4[nH]3)s2)c1 gave outcome of inactive

For reference, reported outcome for Cc1cc(N(C)CCN(C)C)nc(Nc2ccc(Br)cc2)n1 stands at inactive

---

measurementNotes: antimalarial activity against Dd2 strain (AID 2302);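 further: 0% = DMSO untreated growth and 100% = chloroquine plus artemisinin killed control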
conditionContext: P. falciparum Dd2 in RBCs, LDH growth readout, 72 h; at 2 µM; active compounds read high
Examples of compounds with documented growth inhibition follow.
Form entry: value (%) — number only.

Solved entries:
{"columns": ["compound", "growth inhibition [%]"],
 "data": [
  ["COc1ccc(OC)c(NC(=O)C2c3ccccc3C(=O)N(CC(C)C)C2c2cccs2)c1 (stereo not drawn)", 66],
  ["Cc1cc(CN2CCCC(OC(c3ccc(F)cc3)c3ccc(F)cc3)C2)ccc1O (stereo not drawn)", 82],
  ["Cc1cc(NN=Cc2cccc(F)c2)c2cc(F)ccc2n1", 99],
  ["O=C(NCCCCN1CCC(O)(c2ccc3c(c2)OCO3)CC1)c1ccc(NC(=O)c2ccc(Cl)cc2)cc1", 6],
  ["Cc1ccccc1C1CCN(C2CCC(NC(=O)c3ccc(-c4ccccn4)s3)CC2)CC1 (stereo not drawn)", 17]
]}

For reference, reported growth inhibition for CN1CCN(Cc2ccc(-c3ccc4c(Nc5ccc(Oc6ccccn6)cc5)ccnc4c3)o2)CC1 stands at 99

Recorded result, CCN(CC)CCNC(=O)c1ccc(NC(=O)c2ccc(-c3cc(NC(=O)CC4CCCC4)ccc3C)cc2)cc1 , growth inhibition: 95

Note to self: growth inhibition recorded for CCn1ccc2c(N3CCCC3=O)cc(C(=O)N[C@@H](Cc3ccccc3)[C@H](O)CNC(C)(C)CCCC(C)C)cc21 was 98

---

measurementNotes: antimalarial activity against Dd2 strain (AID 2302);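 further: 0% = DMSO untreated growth and 100% = chloroquine plus artemisinin killed control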
conditionContext: P. falciparum Dd2 in RBCs, LDH growth readout, 72 h; at 2 µM; active compounds read high
observationType: growth inhibition (%)
Report the value in % with no unit label.

Item: O=[N+]([O-])c1ccc(Oc2ccccc2CNCC2CCN(CC3CCCCC3)CC2)cc1 | growth inhibition: 28

Per the record, Cc1nc(-c2cccc(C(=O)NC3CCC(CCN4CCc5ccc(-c6cccnc6)cc5CC4)CC3)c2)no1 (stereo not drawn) has growth inhibition of 4

Recorded result, COc1ccc(C(=O)Nc2ccc(Nc3nc(C)cc(N(C)C)n3)cc2)c(OC)c1 , growth inhibition: 72

The recorded growth inhibition for Cc1cc(NC(=O)c2coc3cc(F)c(N4C[C@@H](C)N(C)[C@@H](C)C4)cc23)cnc1-c1ccc(C#N)cc1 is 71

---

measurementNotes: antimalarial activity against Dd2 strain (AID 2302);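 further: 0% = DMSO untreated growth and 100% = chloroquine plus artemisinin killed control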
conditionContext: P. falciparum Dd2 in RBCs, LDH growth readout, 72 h; at 2 µM
The source made the active and inactive calls.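 How the source made its calls: active means growth inhibition above 50% at the single 2 µM test dose, taken to imply half-maximal potency below 2 µM; inactive means the rest.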
// allowed return values: active, inactive

Request: So what was the verdict on CN(C)c1cc(NC(=O)Nc2ccccc2)c2ccccc2n1 in this test?
Result: active

Request: What was the test verdict on CCOC(=O)c1cnc2c(OC)cc(OC)c(Cl)c2c1Nc1ccccc1 ?
Result: active

Request: State the result this test recorded for CC(C)CNCc1cccc(-c2cccc(CNC3CCN(Cc4ccccc4)CC3)c2)c1 .
Result: active

Request: Dear all, I need the recorded test outcome for COc1ccc2c(NN=Cc3ccncc3)ccnc2c1 , thank you.
Result: inactive

Request: Dear all, I need the recorded test outcome for O=C(NC1CCCC1)c1cc2c(=O)n3ccccc3nc2nc1NCCc1ccccc1 , thank you.
Result: active

Request: Fill in: this test's call for COc1ccc(-c2cccc(CNC3CCN(C)CC3)c2)cc1S(=O)(=O)NCc1ccccc1 is ___
Result: inactive

Request: Tell me the assay call for COc1ccc(CCNc2nc(N)c3cc(OC)c(OC)cc3n2)cc1 please.
Result: inactive

Request: Identify the outcome logged in this assay for the molecule shown: O=C(NCCN1CCCC1)c1ccc(-c2ccc(-c3nc4ccc(C(F)(F)F)cc4[nH]3)s2)cc1
Result: active

Request: Which result was noted for this molecule in the test: CCCCN(C)CC#Cc1ccc2[nH]c(C)c(Cl)c(=O)c2c1
Result: active

Request: Name the outcome recorded for Cc1ccnc(NC(=O)c2cc(-c3cccc([N+](=O)[O-])c3)nc3onc(C)c23)c1 in the assay.
Result: inactive

Request: Please share the test call associated with CCC[C@]1(C)CSc2ccccc2[C@@H](c2ccccc2)N1 .
Result: inactive

Request: What outcome does the record of this test show for CS(=O)(=O)c1cccc(-c2cnc3[nH]cc(-c4ccc(C(=O)O)cc4)c3c2)c1 ?
Result: active

Request: Which outcome was assigned to CC1(C)N=C(N)N=C(N)N1OCCCOc1ccc(N)cc1 in this test?
Result: active

---

Each item that follows carries a reported growth inhibition.
measurementNotes: inhibition of 3D7 malaria parasite growth – strain 3D7 (AID 2306);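 further: 0% = DMSO wells and 100% = chloroquine plus artemisinin control wells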
conditionContext: P. falciparum 3D7 erythrocytic growth, LDH absorbance, 72 h; at 2 µM; active compounds read high
Report as a plain number; the unit % is understood.

{"columns": ["smilesEntry", "growth inhibition (%)"],
 "data": [
  ["O=C(Nc1ccc2c(c1)CCC2)c1cccc(N2CCN(c3ccncc3)CC2)c1", 92],
  ["O=S(=O)(c1cccc(F)c1)c1ccc(Nc2ncnc3cc(Br)sc23)cc1Cl", 86],
  ["Cc1cccc2[nH]c(-c3ccc(-c4cccc(CN5CCN(CCO)CC5)c4)cc3)nc12", 100]
]}

Turning now to a further compound:
Kindly note the recorded growth inhibition for O=C(/C=C/c1ccccc1O)NCCCCCN1CCC(c2c[nH]c3ccccc23)CC1 , which is 95

---

tgt: L-lactate dehydrogenase (Plasmodium falciparum (isolate CDC / Honduras)) (UniProt Q27743)
Sequence (Q27743 whole entry, looked up): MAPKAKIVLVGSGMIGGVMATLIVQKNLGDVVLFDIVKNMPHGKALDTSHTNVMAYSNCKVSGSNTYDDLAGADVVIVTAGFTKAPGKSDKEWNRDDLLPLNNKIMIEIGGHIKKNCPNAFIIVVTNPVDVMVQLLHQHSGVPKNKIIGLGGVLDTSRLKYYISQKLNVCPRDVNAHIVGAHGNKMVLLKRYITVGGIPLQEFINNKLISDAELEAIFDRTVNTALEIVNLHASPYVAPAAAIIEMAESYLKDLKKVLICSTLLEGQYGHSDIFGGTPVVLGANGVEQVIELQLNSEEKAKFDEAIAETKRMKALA
measurementNotes: PfLDH activity inhibition – cell lysate, 3D7 strain, counter-screen for P. falciparum growth inhibition project (AID 2304);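 further: 0% = vehicle and 100% = reference inhibitor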
conditionContext: P. falciparum 3D7 crude extract, LDH APAD/NBT absorbance; at 2 µM; active compounds read high
Each entry below carries its recorded inhibition.
Kindly answer with a numeric value in %, unit omitted.

Please fill in: inhibition reported for CC(C)(C)CCN1CCC(NC(=O)c2ccc(-c3cccc(C(F)(F)F)c3)s2)CC1 = -2

The recorded inhibition for entry NC(N)=Nc1nc(-c2cccc(NC(=O)CCCCCCCON3C(N)=NC(N)=NC34CCCCC4)c2)cs1 equals -8

Entry Cc1cccc(C)c1OC(=O)CSc1nnc(-c2ccccc2O)o1 , inhibition reported as 0

Per the record, CN1CCCC(CN2CCN(Cc3cccc(-c4ccc(-c5nc6ccccc6[nH]5)cc4)c3)CC2)C1 (stereo not given) has inhibition of -2

Memo: c1ccc2cc3c(NCCN4CCOCC4)ccnc3cc2c1 , reported inhibition: -1

---

measurementNotes: HepG2 cytotoxicity, primary screen, cytotoxicity control for P. falciparum antimalarial project, cell-based, ATP luminescence (AID 2303);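 further: 0% = DMSO wells and 100% = digitonin-killed cells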
conditionContext: HepG2 viability, 24-48 h, at 10 µM, active compounds read high
# note: exactly 40% is not below, so it is FALSE; use TRUE for inhibition strictly under it

Request: A record lists O=C(Cc1ccc(NC(=O)c2ccc(O)c(-c3ccc(Cl)c(Cl)c3)c2)cc1)NCCN1CCCCC1 . Is its inhibition below 40%?
Result: TRUE

Request: Could you please tell me whether inhibition recorded for O=S(=O)(NCCN1CCCC1)c1ccc(-c2cccc(CNC3Cc4ccccc4C3)c2)s1 is less than 40%?
Result: FALSE

Request: Does this molecule meet the criterion inhibition < 40%? Cc1nc(-c2cccc(C(=O)Nc3cnc4ccccc4c3)c2)no1
Result: TRUE

Request: State whether 40% exceeds inhibition recorded for Cc1c2c(nn1-c1ccccc1)C(c1ccccc1)N(c1ccccc1)C2=O (stereo not given) .
Result: FALSE
